Source listed as paper PMC6254286.

System: Trypanosoma brucei rhodesiense STIB 900
Assay: In vitro activity against T. brucei rhodesiense bloodstream forms (Alamar blue)
Assay type: cell-based
Run Parameters: Trypanosoma brucei, 72 h, bloodstream forms STIB 900, 72 h; mean of two independent measurements; read-out: IC50 T. brucei rhodes. (Tbr)
Attribute: IC50
Use µM as the unit, but write only the number.

C=C1C(=O)OC2CC(C)C3C(OC(C)=O)CC(O)C3(C)CC12 (centres unmarked) [Compound 10]: 6.71

Query :: Consider the compound C=C1C(=O)OC2CC(C)C3(O)C=C(C(C)=O)C4(CC3CC12)C(=O)OC1CC(C)C(C=CC(C)=O)=CCC14 (centres unmarked) [Compound 21] and give its measured IC50.
Result :: 0.638

Query :: Which measured IC50 value corresponds to C=C1CC(O)CC2(C)CC3OC(=O)C(C)C3CC12 (centres unmarked) [Compound 28] ?
Result :: 341

Query :: What value of measured IC50 is listed for C=C1C(=O)OC2CC(C)C3(O)C=C(C(C)=O)C4(CC3CC12)C(=O)OC1CC(C)C2(C=CC(C)=O)OC2CC14 (centres unmarked) [Compound 22] ?
Result :: 1.29

Query :: Look up IC50: C=C1C(=O)OC2CC(C)C3=CC(=O)OC3CC12 (centres unmarked) [Compound 24]
Result :: 8.21

---

Tested on: rat skeletal myoblasts (L6 cells)
Assay: Cytotoxicity against L6 cells (Alamar blue)
Run Parameters: read-out: IC50 Cytotoxicity (L6); L6 rat skeletal myoblasts, 72 h; mean of two independent measurements
Property: pIC50
Friendly reminder that pIC50 comes from taking -log10 of the concentration in mol/L.

Query :: Fill in the blank: the reported pIC50 of C=C1C(=O)OC2C1CCC1(C)C(O)CCC(=C)C21 (stereo not shown) is ____.
Result :: 4.59

---

Assay: Cytotoxicity against L6 cells (Alamar blue)
Run Parameters: rat, L6 cells (rat skeletal myoblasts)
Experimental: Trypanosoma brucei rhodesiense and cytotoxicity against L6 cells. […] The plate was then read in a Spectramax Gemini XS microplate fluorometer (Molecular Devices Corporation, Sunnyvale, CA, USA) using an excitation wavelength of 536 nm and emission wavelength of 588 nm. Fluorescence development was measured and expressed as percentage of the control. Data were transferred into the graphic programme Softmax Pro (Molecular Devices) which calculated IC50 values. […]
Property: log10 of IC50 at 72 h (log10 of the value in µM)
A difference of one corresponds to tenfold IC50 at 72 h; all values are log10 with IC50 at 72 h in µM.

C=C1C(=O)OC2CC(C)C(CCC(C)=O)=CCC12 (centres unmarked): 2.25
C=C1C(=O)OC2C=C(C)CCC3OC3(COC(C)=O)CC(OC(=O)C3(C)OC3C)C12 (centres unmarked): 0.89
C=C1C(=O)OC2CC3(C)CC(=O)CC(C)C3=CC12 (centres unmarked): 1.01
C=C1C(=O)OC2CC3(C)CC(O)CC(=C)C3CC12 (centres unmarked): -0.02
C=C1C(=O)O[C@H]2[C@H]1CC/C(C)=C/CC[C@@]1(C)O[C@@H]21 [Compound 34, parthenolide]: 0.86

Query :: For the compound C=C1C(=O)OC2CC(C)C(C=CC(C)=O)=CCC12 (centres unmarked) , what log10 of IC50 at 72 h is on record?
Result :: 1.48

Query :: I would be grateful if you could share the reported log10 of IC50 at 72 h for CC(C)CC(=O)OC1C2C(CC(C)C3C=CC(=O)C31C)OC(=O)C2C (centres unmarked) .
Result :: 0.66

Query :: Please give the measured log10 of IC50 at 72 h for this compound: C=C1C(=O)OC2CC(C)C3=CC(=O)OC3CC12 (centres unmarked)
Result :: 2.63

---

System: T. cruzi Tulahuen strain C2C4
Assay: In vitro activity against T. cruzi in L-6 host cells (beta-galactosidase/CPRG)
Type: cell-based, Trypanosoma cruzi
Run Parameters: Trypanosoma cruzi, TULAHUEN, L6, 96 h, Tulahuen C2C4 in L-6 cells, 96 h; mean of two independent measurements; read-out: IC50 T. cruzi (Tcr)
Recorded IC50, one value per entry.
Output spec: scalar in µM, unitless text.

The cases that follow already have their IC50 on record.
C=C1C(=O)OC2CC3(C)CCCC(=C)C3CC12 (centres unmarked) [Compound 25]: 22.3
C=C1C(=O)OC2C=C(C)CCC3OC3(CO)CC(OC(=O)C3(C)OC3C)C12 (centres unmarked) [Compound 36]: 25.6

Moving on to another compound below.
Query :: Suppose we examine the compound O=C(Cn1ccnc1[N+](=O)[O-])NCc1ccccc1 [benznidazole, reference compound] ; what IC50 value has been reported?
Result :: 2

---

Assay: in vitro
Run Parameters: rat, IC50 Cytotoxicity (L6), L6 rat skeletal myoblasts, 72 h; mean of two independent measurements
Property: IC50 (µM)
Express your answer in µM, writing the number without its unit.

Query :: Consider the molecule shown here: CC1CC2OC(=O)C(C)C2C(O)C2(C)C(=O)C=CC12 (stereo not shown) [Compound 5] What is its recorded IC50?
Result :: 8.9

Query :: Given the entry C=C1C(=O)OC2C=C(C)C(O)CC3OC3(COC(C)=O)CC(OC(=O)C(C)=CC)C12 (stereo not shown) [Compound 40] , report its measured IC50.
Result :: 6.67

Query :: Give its IC50 value. Item: C=C1C(=O)OC2C1CCC1(C)C(O)CCC(=C)C21 (stereo not shown) [Compound 31]
Result :: 33.2

---

Test system: Trypanosoma brucei rhodesiense STIB 900
Assay: In vitro activity against T. brucei rhodesiense bloodstream forms (Alamar blue)
Assay type: cell-based
Run Parameters: Trypanosoma brucei, 72 h, bloodstream forms STIB 900, 72 h; mean of two independent measurements; read-out: IC50 T. brucei rhodes. (Tbr)
Procedure: Trypanosoma brucei rhodesiense and cytotoxicity against L6 cells. […] The plate was then read in a Spectramax Gemini XS microplate fluorometer (Molecular Devices Corporation, Sunnyvale, CA, USA) using an excitation wavelength of 536 nm and emission wavelength of 588 nm. Fluorescence development was measured and expressed as percentage of the control. Data were transferred into the graphic programme Softmax Pro (Molecular Devices) which calculated IC50 values. […]
Property: IC50 (nM)
Form entry: value (nM) — number only.

Below are worked cases with known answers.
C=C1C(=O)OC2CC(C)C3C(OC(C)=O)CC(OC(C)=O)C3(C)CC12 (stereo not drawn) [Compound 14]: 1170
C=C1C(=O)OC2C=C(C)C(O)CC3OC3(C)CC(OC(=O)C(C)=CC)C12 (stereo not drawn) [Compound 38]: 942
C=C1C(=O)OC2CC(C)C3C(O)CC(O)C3(C)CC12 (stereo not drawn) [Compound 11]: 18300
C=C1C(=O)OC2CC(C)C3C(OC(C)=O)CC(O)C3(C)C(OC(C)=O)C12 (stereo not drawn) [Compound 15]: 3960
C=C1C(=O)OC2CC3(C)CC(O)CC(=C)C3CC12 (stereo not drawn) [Compound 26]: 7800

Query :: IC50 of C=C1C(=O)OC2CC3(C)CCCC(C)C3=CC12 (stereo not drawn) [Compound 29] on Trypanosoma brucei rhodesiense STIB 900?
Result :: 2620

Query :: Form entry - test system: Trypanosoma brucei rhodesiense STIB 900; read-out: IC50; compound: C=C(C(=O)OC1CC(C)=CCCC(CO)=CC2OC(=O)C(=C)C21)C(O)CO (stereo not drawn) [Compound 33]
Result :: 1300

Query :: For Trypanosoma brucei rhodesiense STIB 900, provide IC50 of C=C1C(=O)OC2CC(C)C3C(O)CC(OC(=O)C(C)=CC)C3(C)C(O)C12 (stereo not drawn) [Compound 12] please.
Result :: 11000

Query :: Lab request: please report IC50 under test system Trypanosoma brucei rhodesiense STIB 900 for C=C1C(=O)OC2CC(C)C(C=CC(C)=O)=CCC12 (stereo not drawn) [Compound 18]
Result :: 2920

---

System: T. cruzi Tulahuen strain C2C4
Assay: In vitro activity against T. cruzi in L-6 host cells (beta-galactosidase/CPRG)
Format: cell-based, Trypanosoma cruzi
Run Parameters: Trypanosoma cruzi, TULAHUEN, L6, 96 h, Tulahuen C2C4 in L-6 cells, 96 h; mean of two independent measurements; read-out: IC50 T. cruzi (Tcr)
Each record here notes measured pIC50.
Quick note: pIC50 means taking -log10 of the concentration in moles per liter.

# annotated cases, reported pIC50 shown
C=C1C(=O)OC2C1CCC1(C)C(O)CCC(=C)C21 (centres unmarked) [Compound 31]: 4.54
C=C1C(=O)OC2C=C(C)C(O)CC3OC3(COC(C)=O)CC(OC(=O)C(C)=CC)C12 (centres unmarked) [Compound 40]: 4.93
C=C1C(=O)OC2CC(C)C3(O)C=C(C(C)=O)C4(CC3CC12)C(=O)OC1CC(C)C(C=CC(C)=O)=CCC14 (centres unmarked) [Compound 21]: 4.79

Query :: # lookup: pIC50 of C=C1C(=O)OC2CC3(C)CC(=O)CC(C)C3=CC12 (centres unmarked) [Compound 30]
Result :: 4.76

Query :: Which pIC50 is reported for this compound? C=C1C(=O)OC2CC(C)C3C(OC(C)=O)CC(O)C3(C)C(OC(C)=O)C12 (centres unmarked) [Compound 15]
Result :: 4.79

Query :: I have this compound here, C=C1C(=O)OC2CC(C)C3C(OC(C)=O)CC(O)C3(C)CC12 (centres unmarked) [Compound 10] , and I need its recorded pIC50.
Result :: 4.69

Query :: Sample C=C(C(=O)OC1CC(C)=CCCC(CO)=CC2OC(=O)C(=C)C21)C(O)CO (centres unmarked) [Compound 33] — what was its pIC50?
Result :: 4.77

Query :: Entry C=C1C(=O)OC2CC(C)C3C(O)CC(O)C3(C)CC12 (centres unmarked) [Compound 11] has what pIC50?
Result :: 4.28
